Recorded values, source patent US11484032B2.

- Target under test: AgOrco+AgOR65 (Anopheles gambiae, UniProt Q7QCC7)
- Construct: expressed in transfected cells
- Assay remarks: Ca2+ imaging, HEK cells expressing AgOrco+AgOR65
- Type: cell-based
- Condition set: heteromeric OR channels AgOrco+AgOR65; read-out: EC50
Assay endpoint: EC50

{"Molecule": "CCn1c(SCC(=O)Nc2ccc(C(C)C)cc2)nnc1-c1cccnc1", "Measured": "9.2 µM"}
{"Molecule": "C=Cc1ccc(NC(=O)CSc2nnc(-c3cccnc3)n2CC)cc1", "Measured": "110 µM"}
{"Molecule": "CC(C)c1ccc(NC(=O)CSc2nnc(-c3ccncc3)n2C2CC2)cc1", "Measured": "2.1 µM"}
{"Molecule": "CCc1ccc(NC(=O)CSc2nnc(-c3cccnc3)n2CC)cc1", "Measured": "37 µM"}
{"Molecule": "C=CCc1ccc(O)c(OC)c1 [eugenol, reference compound]", "Measured": "0.5 µM"}
{"Molecule": "CCn1c(SCC(=O)Nc2ccc(C)cc2)nnc1-c1cccnc1", "Measured": "3400 µM"}

---

- System: An. gambiae early 4th instar larvae
- Assay remarks: Larval mosquito movement assay (Daniovision-Ethovision)
- Assay type: in vivo, Anopheles gambiae
- Condition set: compared with DMSO controls or VUAA1

{"Smiles structure": "CCn1c(SCC(=O)Nc2ccc(C)cc2)nnc1-c1cccnc1", "larval behavioral (movement) response": "lower"}

---

- Target under test: AgORco+AgOR10 (Anopheles gambiae, UniProt Q7QCC7)
- Construct: expressed in transfected cells
- Sequence (Q7QCC7 1-478): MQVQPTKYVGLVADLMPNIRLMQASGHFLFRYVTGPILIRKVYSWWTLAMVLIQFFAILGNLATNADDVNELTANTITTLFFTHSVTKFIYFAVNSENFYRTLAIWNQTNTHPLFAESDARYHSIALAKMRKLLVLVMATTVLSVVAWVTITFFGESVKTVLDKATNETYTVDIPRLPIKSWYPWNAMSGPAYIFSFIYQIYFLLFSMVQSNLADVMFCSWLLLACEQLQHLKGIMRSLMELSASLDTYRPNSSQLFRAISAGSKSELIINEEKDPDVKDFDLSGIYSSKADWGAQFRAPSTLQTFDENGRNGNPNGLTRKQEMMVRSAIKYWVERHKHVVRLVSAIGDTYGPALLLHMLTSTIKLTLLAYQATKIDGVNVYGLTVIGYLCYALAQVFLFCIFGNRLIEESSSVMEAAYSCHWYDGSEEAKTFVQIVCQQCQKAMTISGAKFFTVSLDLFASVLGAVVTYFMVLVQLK
- Assay remarks: Fluo-4 Ca2+ imaging, HEK293 cells expressing Orco+AgOR10
- Format: cell-based
- Design: concentration or dose not given beside the values
- Condition set: Orco 10 + Orco, antagonist mode

{"Compound": "Cc1ccccc1-n1c(SCc2csc(Nc3ccccc3)n2)nnc1-c1cccnc1", "Orco 10 + Orco Angatonist % Reduction [%]": 56.98}
{"Compound": "CCn1c(SCC(=O)Nc2ccccc2C(=O)OC)nnc1-c1cccc(C)c1", "Orco 10 + Orco Angatonist % Reduction [%]": 16.03}
{"Compound": "Clc1ccc(CSc2nnc(-c3cccnc3)n2Cc2ccco2)c(Cl)c1", "Orco 10 + Orco Angatonist % Reduction [%]": 49.50}
{"Compound": "CCOC(=O)CN(C(=O)CSc1nnc(CNc2ccc(F)cc2)n1CC)c1ccc(F)cc1", "Orco 10 + Orco Angatonist % Reduction [%]": 8.24}
{"Compound": "C=CCn1c(SCc2cccc3ccccc23)nnc1-c1cccnc1", "Orco 10 + Orco Angatonist % Reduction [%]": 13.43}
{"Compound": "COc1cc(Cl)c(C)cc1NC(=O)CSc1nnc(-c2cccnc2)n1Cc1ccco1", "Orco 10 + Orco Angatonist % Reduction [%]": 25.31}
{"Compound": "O=C(CSc1nnc(-c2cccnc2)n1-c1ccc(SC(F)F)cc1)N1CCCc2ccccc21", "Orco 10 + Orco Angatonist % Reduction [%]": 24.77}
{"Compound": "c1ccc(CSc2nnc(-c3cccnc3)n2Cc2ccccc2)cc1", "Orco 10 + Orco Angatonist % Reduction [%]": 16.73}
{"Compound": "O=C(CSc1nnc(-c2cccnc2)n1Cc1ccco1)N1c2ccccc2Sc2ccccc21 [drawing 490]", "Orco 10 + Orco Angatonist % Reduction [%]": 46.34}
{"Compound": "CCn1c(COc2ccccc2)nnc1SCC(=O)Nc1cc(OC)ccc1OC", "Orco 10 + Orco Angatonist % Reduction [%]": 38.62}

---

- Target under test: Orco 28 + Orco (Anopheles gambiae)
- Construct: expressed in transfected cells
- Sequence (Q7QCC7 1-478): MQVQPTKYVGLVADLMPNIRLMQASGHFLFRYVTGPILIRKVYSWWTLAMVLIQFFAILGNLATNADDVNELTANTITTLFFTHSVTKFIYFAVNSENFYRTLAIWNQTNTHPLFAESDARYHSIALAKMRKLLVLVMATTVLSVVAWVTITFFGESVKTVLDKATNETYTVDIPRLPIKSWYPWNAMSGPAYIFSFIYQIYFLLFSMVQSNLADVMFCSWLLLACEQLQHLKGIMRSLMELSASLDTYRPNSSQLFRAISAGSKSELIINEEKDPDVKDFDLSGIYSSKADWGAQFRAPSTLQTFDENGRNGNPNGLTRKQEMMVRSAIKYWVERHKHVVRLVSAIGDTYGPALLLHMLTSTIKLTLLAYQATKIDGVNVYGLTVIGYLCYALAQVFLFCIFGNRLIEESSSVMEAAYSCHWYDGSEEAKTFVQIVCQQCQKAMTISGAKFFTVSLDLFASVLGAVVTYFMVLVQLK
- Assay remarks: Ca2+ imaging, cells expressing Orco + OR28 (Table 1 head "Orco 28 + Orco")
- Assay type: cell-based
- Condition set: potentiator mode
Documented Orco 28 + Orco Potentiator % increase across a set of molecules
Assay endpoint: Orco 28 + Orco Potentiator % increase (%)

{"Smiles structure": "O=C(CSc1nnc(-c2cccnc2)n1CCc1ccccc1)NCc1ccccc1", "Target under test": "Orco 28 + Orco (Anopheles gambiae)", "Measured": 15.9}
{"Smiles structure": "O=C(CSc1nnc(-c2cccnc2)n1-c1ccc(Br)cc1)c1c[nH]c2ccccc12", "Target under test": "Orco 28 + Orco (Anopheles gambiae)", "Measured": 19.9}
{"Smiles structure": "CCOc1ccccc1-n1c(SCC(N)=O)nnc1-c1cccnc1", "Target under test": "Orco 28 + Orco (Anopheles gambiae)", "Measured": 14.71}
{"Smiles structure": "NC(=O)CSc1nnc(-c2cccnc2)n1-c1ccccc1", "Target under test": "Orco 28 + Orco (Anopheles gambiae)", "Measured": 15.18}
{"Smiles structure": "O=C(CSc1nnc(-c2cccnc2)n1Cc1ccccc1)Nc1ccc(F)cc1", "Target under test": "Orco 28 + Orco (Anopheles gambiae)", "Measured": 16.12}

---

- Target under test: Orco 28 + Orco (Anopheles gambiae, UniProt Q7QCC7)
- Construct: expressed in transfected cells
- Assay remarks: Activity against insect odorant sensory receptors, Orco 28 + Orco (Table 1)
- Type: cell-based
- Condition set: potentiator mode
Documented Orco 28 + Orco Potentiator % increase across a set of compounds

{"Smiles structure": "CCn1c(SCC(=O)Nc2ccc(Cl)cc2C)nnc1-c1ccncc1", "Units": "%", "Orco 28 + Orco Potentiator % increase": 17.69}
{"Smiles structure": "CCn1c(SCC(=O)Nc2ccc(S(=O)(=O)Nc3ccccn3)cc2)nnc1-c1ccncc1", "Units": "%", "Orco 28 + Orco Potentiator % increase": 15.45}
{"Smiles structure": "CCn1c(CNC(=O)c2ccco2)nnc1SCC(=O)Nc1cc(C)c(C)cc1Br", "Units": "%", "Orco 28 + Orco Potentiator % increase": 12.28}
{"Smiles structure": "CCn1c(Cc2ccccc2)nnc1SCC(=O)Nc1ccc(OC)cc1", "Units": "%", "Orco 28 + Orco Potentiator % increase": 12.7}

---

- Target under test: AgORco+AgOR10 (Anopheles gambiae, UniProt Q7QCC7)
- Construct: expressed in transfected cells
- Assay remarks: Fluo-4 Ca2+ imaging, HEK293 cells expressing Orco+AgOR10
- Assay type: cell-based
- Condition set: 10 + Orco; potentiator mode
Criterion: Orco 10 + Orco Potentiator % increase strictly under 10%. Met: TRUE. Not met: FALSE.

{"Smiles structure": "COC(=O)c1ccccc1NC(=O)CSc1nnc(-c2cccnc2)n1C", "Assigned category": "FALSE"}
{"Smiles structure": "CCn1c(SCC(=O)C(C)(C)C)nnc1-c1cccnc1", "Assigned category": "FALSE"}
{"Smiles structure": "CCCn1c(SCC(=O)NCCc2ccccc2)nnc1-c1cccnc1", "Assigned category": "FALSE"}
{"Smiles structure": "CCn1c(SCc2nc3ccccc3[nH]2)nnc1-c1cccnc1", "Assigned category": "TRUE"}
{"Smiles structure": "CCn1c(SCCC(=O)O)nnc1-c1cccnc1", "Assigned category": "FALSE"}
{"Smiles structure": "CCc1cccc(CC)c1NC(=O)CSc1nnc(C(C)C)n1CC", "Assigned category": "FALSE"}

---

- Target under test: AgORco+AgOR10 (Anopheles gambiae, UniProt Q7QCC7)
- Construct: expressed in transfected cells
- Sequence (Q7QCC7 1-478): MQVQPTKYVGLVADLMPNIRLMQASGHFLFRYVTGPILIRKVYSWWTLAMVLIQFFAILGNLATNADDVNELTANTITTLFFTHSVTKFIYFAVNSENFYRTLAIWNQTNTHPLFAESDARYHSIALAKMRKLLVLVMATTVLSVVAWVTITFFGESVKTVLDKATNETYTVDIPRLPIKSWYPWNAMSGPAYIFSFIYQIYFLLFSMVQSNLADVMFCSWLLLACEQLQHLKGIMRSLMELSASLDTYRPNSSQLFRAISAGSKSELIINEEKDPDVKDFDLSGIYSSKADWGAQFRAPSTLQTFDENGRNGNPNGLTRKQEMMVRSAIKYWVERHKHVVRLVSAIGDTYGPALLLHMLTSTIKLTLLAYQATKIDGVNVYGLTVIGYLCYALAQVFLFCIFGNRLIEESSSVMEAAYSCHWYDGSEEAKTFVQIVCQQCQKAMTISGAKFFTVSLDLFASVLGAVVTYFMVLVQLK
- Assay remarks: Fluo-4 Ca2+ imaging, HEK293 cells expressing Orco+AgOR10
- Format: cell-based
- Parameters: concentration or dose not given beside the values
- Condition set: Orco 10 + Orco, antagonist mode
Assay endpoint: Orco 10 + Orco Angatonist % Reduction (%)

{"Molecule": "O=C(CSc1nnc(-c2cccnc2)n1Cc1ccco1)c1ccc(Br)cc1", "Assay endpoint": "Orco 10 + Orco Angatonist % Reduction", "Measured": 7.93}
{"Molecule": "CCn1c(CNC(=O)COc2ccc(C(C)C)cc2)nnc1SCC(=O)Nc1ccccc1", "Assay endpoint": "Orco 10 + Orco Angatonist % Reduction", "Measured": 13.06}
{"Molecule": "CCn1c(CNC(=O)COc2ccc(C(C)C)cc2)nnc1SCC(=O)Nc1ccccc1C(C)C", "Assay endpoint": "Orco 10 + Orco Angatonist % Reduction", "Measured": 44.74}
{"Molecule": "CCn1c(COc2cccc(OC)c2)nnc1SCC(=O)Nc1ccccc1C(=O)OC", "Assay endpoint": "Orco 10 + Orco Angatonist % Reduction", "Measured": 72.23}
{"Molecule": "CCn1c(SCC(=O)Nc2ccc(N(C)C)cc2)nnc1-c1cccc(C)c1", "Assay endpoint": "Orco 10 + Orco Angatonist % Reduction", "Measured": 29.54}
{"Molecule": "CCOC(=O)c1cccc(NC(=O)CSc2nnc(CNc3ccc(C)cc3)n2CC)c1", "Assay endpoint": "Orco 10 + Orco Angatonist % Reduction", "Measured": 62.21}
{"Molecule": "CCOc1ccccc1-n1c(SCC(=O)N2CCCc3ccccc32)nnc1-c1cccnc1", "Assay endpoint": "Orco 10 + Orco Angatonist % Reduction", "Measured": 29.87}
{"Molecule": "CCn1c(COc2ccc(OC)cc2)nnc1SCC(=O)Nc1cc(OC)ccc1OC", "Assay endpoint": "Orco 10 + Orco Angatonist % Reduction", "Measured": 7.54}
{"Molecule": "CCn1c(CNC(=O)c2ccco2)nnc1SCC(=O)Nc1cc(C(F)(F)F)ccc1Cl", "Assay endpoint": "Orco 10 + Orco Angatonist % Reduction", "Measured": 15.97}
{"Molecule": "O=C(CSc1nnc(-c2cccnc2)n1Cc1ccco1)N1c2ccccc2Sc2ccccc21 [drawing 497]", "Assay endpoint": "Orco 10 + Orco Angatonist % Reduction", "Measured": 53.70}
{"Molecule": "CCc1ccc(NC(=O)CSc2nnc(-c3cccs3)n2CC)cc1", "Assay endpoint": "Orco 10 + Orco Angatonist % Reduction", "Measured": 32.93}
{"Molecule": "Cc1ccc(-n2c(SCC(=O)NCc3ccco3)nnc2-c2cccnc2)c(C)c1", "Assay endpoint": "Orco 10 + Orco Angatonist % Reduction", "Measured": 15.51}
{"Molecule": "CCOC(=O)c1c(NC(=O)CSc2nnc(-c3cccnc3)n2Cc2ccco2)sc(C)c1C", "Assay endpoint": "Orco 10 + Orco Angatonist % Reduction", "Measured": 30.44}
{"Molecule": "CCn1c(SCC(=O)N2c3ccccc3CCc3ccccc32)nnc1-c1ccco1", "Assay endpoint": "Orco 10 + Orco Angatonist % Reduction", "Measured": 13.40}
{"Molecule": "Cc1ccc(Nc2nc(CSc3nnc(-c4cccnc4)n3-c3ccccc3F)cs2)cc1", "Assay endpoint": "Orco 10 + Orco Angatonist % Reduction", "Measured": 47.91}
{"Molecule": "Clc1ccccc1CSc1nnc(-c2cccnc2)n1Cc1ccco1", "Assay endpoint": "Orco 10 + Orco Angatonist % Reduction", "Measured": 33.76}
{"Molecule": "CCn1c(COc2cccc(OC)c2)nnc1SCC(=O)Nc1cc(OC)ccc1OC", "Assay endpoint": "Orco 10 + Orco Angatonist % Reduction", "Measured": 30.79}
{"Molecule": "CCn1c(SCC(=O)Nc2ccc(OCc3ccccc3)cc2)nnc1-c1ccco1", "Assay endpoint": "Orco 10 + Orco Angatonist % Reduction", "Measured": 28.44}
{"Molecule": "CCc1cccc(CC)c1-n1c(SCn2nnc3ccccc3c2=O)nnc1-c1cccnc1", "Assay endpoint": "Orco 10 + Orco Angatonist % Reduction", "Measured": 25.00}
{"Molecule": "CCn1c(CNC(=O)COc2ccc(C(C)C)cc2)nnc1SCC(=O)Nc1ccccc1F", "Assay endpoint": "Orco 10 + Orco Angatonist % Reduction", "Measured": 11.35}
{"Molecule": "Fc1ccc(CSc2nnc(-c3cccnc3)n2Cc2ccco2)cc1", "Assay endpoint": "Orco 10 + Orco Angatonist % Reduction", "Measured": 16.64}
